Test system: Fasted Mice
Test: Activity on Glucose Tolerance in Fasted Mice
Format: in vivo
Conditions: mice fasted 24 hours, 8 per group; dose 0.2 mmol/kg body weight orally in 1% aqueous carboxymethyl cellulose; glucose 1 g/kg sub-cutaneous 30 minutes later; vehicle control (dose 0) value in the row above; asterisks = significance vs controls
Each entry below carries its recorded blood glucose concentration (mmol/litre) 60 minutes after sub-cutaneous glucose load.
VALUE KIND: blood glucose concentration (mmol/litre) 60 minutes after sub-cutaneous glucose load

1. Cn1cc(Br)ccc1=NC(=Nc1ccccc1)N1CCOCC1.I ... 3.52 *** mmol/litre
2. Cc1ccn(C)c(=NC(=Nc2ccccc2)N2CCOCC2)c1.I ... 4.47 ** mmol/litre
3. CC1CN(C(=Nc2ccccc2)N=c2ccccn2C)CC(C)O1 (stereo not shown) ... 3.48 mmol/L
4. Cc1ccc(=NC(=Nc2ccccc2)N2CCOCC2)n(C)c1 ... 2.53 **** mmol/litre
5. COC(=O)c1ccc(=NC(=Nc2ccccc2)N2CCOCC2)n(C)c1.I ... 3.36 ** mmol/litre
6. Cn1ccccc1=NC(=Nc1ccccc1)NCc1ccccc1 ... 5.36 ** mmol/litre
7. CCN(CC)C(=Nc1ccccc1)N=c1c(C)cccn1C.I ... 5.54 *** mmol/litre
